- Measured target: T1, ADF-1 (D. funebris) (Drosophila funebris, UniProt E2DD98 1-262)
- T1 sequence: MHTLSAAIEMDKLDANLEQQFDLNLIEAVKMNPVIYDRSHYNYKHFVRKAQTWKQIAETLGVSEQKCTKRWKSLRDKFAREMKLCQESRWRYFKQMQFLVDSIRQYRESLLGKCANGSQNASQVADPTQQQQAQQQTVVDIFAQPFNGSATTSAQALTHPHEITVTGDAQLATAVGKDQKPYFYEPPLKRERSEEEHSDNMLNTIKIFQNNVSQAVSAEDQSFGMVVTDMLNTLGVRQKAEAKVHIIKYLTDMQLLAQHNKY
- Assay overview: EMSA

- Binder: "Oligo 3 (dsDNA) DNA 1: TCAATGTCGCCGTCGCTGTCTCAGTCG DNA 2: CGACTGAGACAGCGACGGCGACATTGA"
  Units: "µM"
  Kd: 28.3
- Binder: "Oligo 1 (dsDNA) DNA 1: ATCGACGTCGGCGTCGACATCGTGA DNA 2: TCACGATGTCGACGCCGACGTCGAT"
  Units: "µM"
  Kd: 1.95
- Binder: "Oligo 2 (dsDNA) DNA 1: ATCGACGTCAACGGCAGCGTTCACAT DNA 2: ATGTGAACGCTGCCGTTGACGTCGAT"
  Units: "µM"
  Kd: 5.05
- Binder: "Oligo 4 (dsDNA) DNA 1: TCGCTGTCTCAGTCGACGCTATTGAT DNA 2: ATCAATAGCGTCGACTGAGACAGCGA"
  Units: "µM"
  Kd: 1.86
